- Target or system: T1, LIN7B, Q9HAP6
- T1 sequence (Q9HAP6 88-185, limits assumed, looked up): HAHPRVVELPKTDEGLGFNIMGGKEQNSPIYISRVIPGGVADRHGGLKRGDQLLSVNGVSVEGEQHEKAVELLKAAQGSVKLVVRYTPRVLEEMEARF
- Assay summary: holdup assay
- Set-up: key: below the threshold = too weak to quantify, mostly under pKd 3.1 to 4
- Assay context: plain residues with an end cap or a label only (N-terminal biotin on a linker: ado-ado)
Please respond with reported pKd for every item in the list.
Answers are plain numbers.

Solved entries:
binder="PSDSVGKDVF [EGLN1, Q9GZT9]" assay_result=3.55
binder="PLPPEEESWV [GAS2L2, Q8NHY3]" assay_result=3.96
binder="RGKNRRQSIF [CDK18, Q07002]" assay_result=4.03

Batch lookup, pKd per entry.
1. YAEKRMLTEV [KCNA6, P17658]
2. PLATCDETSI [SEMA4F, O95754]
3. GTMFLRETSL [GUCY1A2, P33402]
4. KPDKQEEFYA [SDC3, O75056]
5. RDYTQSSSSL [GRM5, P41594]
6. PEKVSNTTVV [IGSF5, Q9NSI5]
7. GVHSNDHSVV [LPAR1, Q92633]

Reply:
[3.65, 3.78, 4.74, 3.78, 3.52, 3.69, 3.64]
